- assay-remarks: Binding affinity to human chymotrypsin assessed as release of p-nitroaniline after 10 to 120 mins by spectrophotometric analysis
reported-endpoint: Ki (µM)

compound: CC(C)CC(=O)Nc1cc(-c2ccc(C(N)=O)cc2C(=O)O)cc(C2CC(C)(c3ccccc3)c3cc(C(=N)N)ccc3N2)c1 (single isomer, unassigned; enantiomer 2)
quantitative-readout: 14

====

- target: Plasminogen (Homo sapiens, UniProt P00747)
- Sequence (P00747 97-580 limits assumed): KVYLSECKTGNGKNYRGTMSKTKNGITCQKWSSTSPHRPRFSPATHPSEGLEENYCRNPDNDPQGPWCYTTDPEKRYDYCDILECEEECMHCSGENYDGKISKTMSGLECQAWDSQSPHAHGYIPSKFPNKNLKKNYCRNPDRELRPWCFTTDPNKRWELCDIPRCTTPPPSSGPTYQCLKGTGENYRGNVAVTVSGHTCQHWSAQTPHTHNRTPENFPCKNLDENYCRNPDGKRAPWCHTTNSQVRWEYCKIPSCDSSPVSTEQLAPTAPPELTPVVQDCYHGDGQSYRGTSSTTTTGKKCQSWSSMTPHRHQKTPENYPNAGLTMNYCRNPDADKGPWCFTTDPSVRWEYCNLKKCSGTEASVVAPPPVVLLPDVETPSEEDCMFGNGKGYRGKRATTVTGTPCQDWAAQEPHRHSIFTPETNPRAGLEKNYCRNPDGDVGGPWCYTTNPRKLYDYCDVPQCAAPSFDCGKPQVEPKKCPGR
- Sequence (P00747 581-810 limits assumed): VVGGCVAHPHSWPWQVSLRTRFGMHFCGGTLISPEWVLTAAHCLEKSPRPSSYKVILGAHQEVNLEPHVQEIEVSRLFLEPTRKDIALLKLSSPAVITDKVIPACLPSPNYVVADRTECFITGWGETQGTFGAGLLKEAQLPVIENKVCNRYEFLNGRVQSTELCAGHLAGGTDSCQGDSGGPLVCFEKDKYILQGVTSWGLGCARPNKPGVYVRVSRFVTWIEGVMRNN
- assay-remarks: Binding affinity to human plasmin assessed as release of p-nitroaniline after 10 to 120 mins by spectrophotometric analysis
reported-endpoint: Ki (nM)

compound: CC(C)CC(=O)Nc1cc(-c2ccc(C(N)=O)cc2C(=O)O)cc(C2CC(C)(c3ccccc3)c3cc(C(=N)N)ccc3N2)c1 (single isomer, unassigned; enantiomer 2)
quantitative-readout: 910

====

- target: Coagulation factor IX (Homo sapiens, UniProt P00740)
- Sequence (P00740 47-191 limits assumed): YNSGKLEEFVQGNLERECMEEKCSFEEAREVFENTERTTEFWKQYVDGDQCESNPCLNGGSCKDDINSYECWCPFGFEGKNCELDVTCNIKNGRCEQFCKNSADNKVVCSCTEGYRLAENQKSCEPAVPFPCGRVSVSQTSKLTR
- Sequence (P00740 227-461 limits assumed): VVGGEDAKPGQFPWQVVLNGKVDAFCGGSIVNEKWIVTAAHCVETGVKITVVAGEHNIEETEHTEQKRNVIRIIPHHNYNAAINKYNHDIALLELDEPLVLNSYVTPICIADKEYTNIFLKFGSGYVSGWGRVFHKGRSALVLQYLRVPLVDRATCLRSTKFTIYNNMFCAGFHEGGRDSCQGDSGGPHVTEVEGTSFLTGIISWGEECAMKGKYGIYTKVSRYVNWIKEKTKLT
reported-endpoint: Ki

molecule: CC(C)CC(=O)Nc1cc(-c2ccc(C(N)=O)cc2C(=O)O)cc(C2CC(C)(c3ccccc3)c3cc(C(=N)N)ccc3N2)c1 (single isomer, unassigned; enantiomer 2)
result: > 20 µM

====

- Organism: Homo sapiens
- assay-remarks: Selectivity ratio of Ki for human factor 7a to Ki for human factor 11a

compound: CC1(c2ccccc2)CC(c2cccc(-c3ccc(C(N)=O)cc3C(=O)O)c2)Nc2ccc(C(=N)N)cc21 (single isomer, unassigned; (+))
Ratio Ki: 200
//
compound: N=C(N)c1ccc2c(c1)[C@@H](c1ccccc1)C[C@@H](c1cccc(-c3ccc(C(=O)O)cc3C(=O)O)c1)N2 (racemic)
Ratio Ki: 20
//
compound: CC(C)CNC(=O)c1ccc(-c2ccccc2[C@@H]2C[C@H](c3ccccc3)c3cc(C(=N)N)ccc3N2)c(C(=O)O)c1 (racemic)
Ratio Ki: 4
//
compound: N=C(N)c1ccc2c(c1)[C@@H](c1ccccc1)C[C@@H](c1ccccc1-c1ccc(C(=O)O)cc1C(=O)O)N2 (racemic)
Ratio Ki: 30

====

- assay-remarks: Binding affinity to New Zealand White rabbit factor 11a assessed as release of p-nitroaniline after 10 to 120 mins by spectrophotometric analysis
- Design: species or system Oryctolagus cuniculus

compound: CC(C)CC(=O)Nc1cc(-c2ccc(C(N)=O)cc2C(=O)O)cc(C2CC(C)(c3ccccc3)c3cc(C(=N)N)ccc3N2)c1 (single isomer, unassigned; enantiomer 2)
Ki [nM]: 0.42

====

- Species on record: Homo sapiens
- assay-remarks: Selectivity ratio of Ki for human factor 10a to Ki for human factor 11a
Parameter Ratio Ki: see the listing below.

molecule: CC1(c2ccccc2)CC(c2cccc(-c3ccc(C(N)=O)cc3C(=O)O)c2)Nc2ccc(C(=N)N)cc21 (single isomer, unassigned; (+))
Ratio Ki: > 1000

molecule: N=C(N)c1ccc2c(c1)[C@@H](c1ccccc1)C[C@@H](c1cccc(-c3ccc(C(=O)O)cc3C(=O)O)c1)N2 (racemic)
Ratio Ki: 30

molecule: N=C(N)c1ccc2c(c1)[C@@H](c1ccccc1)C[C@@H](c1ccccc1-c1ccc(C(=O)O)cc1C(=O)O)N2 (racemic)
Ratio Ki: 100

molecule: CC(C)CNC(=O)c1ccc(-c2ccccc2[C@@H]2C[C@H](c3ccccc3)c3cc(C(=N)N)ccc3N2)c(C(=O)O)c1 (racemic)
Ratio Ki: 40

====

- target: UniProtKB P00734
reported-endpoint: Ki (µM)

molecule: CC(C)CC(=O)Nc1cc(-c2ccc(C(N)=O)cc2C(=O)O)cc(C2CC(C)(c3ccccc3)c3cc(C(=N)N)ccc3N2)c1 (single isomer, unassigned; enantiomer 2)
reported-endpoint: Ki
quantitative-readout: 12.6

====

- assay-remarks: Binding affinity to New Zealand White rabbit plasma kallikrein assessed as release of p-nitroaniline after 10 to 120 mins by spectrophotometric analysis
- Assay type: cell-free, Oryctolagus cuniculus
pKi: −log10 of the molar value.

compound: CC(C)CC(=O)Nc1cc(-c2ccc(C(N)=O)cc2C(=O)O)cc(C2CC(C)(c3ccccc3)c3cc(C(=N)N)ccc3N2)c1 (single isomer, unassigned; enantiomer 2)
pKi: 8.34

====

- target: Coagulation factor X (Homo sapiens, UniProt P00742)
- Sequence (P00742 41-179 limits assumed): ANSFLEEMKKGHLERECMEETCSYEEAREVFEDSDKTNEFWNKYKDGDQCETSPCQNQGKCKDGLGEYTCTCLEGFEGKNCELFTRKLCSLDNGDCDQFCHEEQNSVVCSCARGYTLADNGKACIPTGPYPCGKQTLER
- Sequence (P00742 235-488 limits assumed): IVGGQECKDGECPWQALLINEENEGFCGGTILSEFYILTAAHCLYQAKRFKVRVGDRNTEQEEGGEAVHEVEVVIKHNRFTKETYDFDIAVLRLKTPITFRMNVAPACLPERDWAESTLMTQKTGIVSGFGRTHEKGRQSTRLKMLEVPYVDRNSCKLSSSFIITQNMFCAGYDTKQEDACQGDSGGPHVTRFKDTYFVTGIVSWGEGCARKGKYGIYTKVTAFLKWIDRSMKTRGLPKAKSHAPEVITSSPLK
- assay-remarks: Binding affinity to human factor 10a assessed as release of p-nitroaniline after 10 to 120 mins by spectrophotometric analysis
Let's look at some compounds and their measured Ki.

compound: CC(C)(C)NC(=O)c1ccc(-c2cccc([C@@H]3C[C@](C)(c4ccccc4)c4cc(C(=N)N)ccc4N3)c2)c(C(=O)O)c1 (racemic)
Ki: 6.4 µM
//
compound: N=C(N)c1ccc2c(c1)[C@@H](c1ccccc1)C[C@@H](c1cc(N)cc(-c3ccccc3C(=O)O)c1)N2 (racemic)
Ki: 0.057 µM
//
compound: CC(C)CC(=O)Nc1cc(-c2ccc(C(N)=O)cc2C(=O)O)cc([C@@H]2C[C@](C)(c3ccccc3)c3cc(C(=N)N)ccc3N2)c1 (racemic)
Ki: 0.784 µM
//
compound: CC(C)CC(=O)Nc1cc(-c2ccc(C(N)=O)cc2C(=O)O)cc(C2CC(C)(c3ccccc3)c3cc(C(=N)N)ccc3N2)c1 (single isomer, unassigned; enantiomer 2)
Ki: 0.34 µM
//
compound: C[C@]1(c2ccccc2)C[C@@H](c2cccc(-c3ccccc3C(=O)O)c2)Nc2ccc(C(=N)N)cc21 (racemic)
Ki: 6.7 µM
//
compound: CC1(c2ccccc2)CC(c2cccc(-c3ccc(C(N)=O)cc3C(=O)O)c2)Nc2ccc(C(=N)N)cc21 (single isomer, unassigned; enantiomer 2)
Ki: > 15 µM
//
compound: C[C@]1(c2ccccc2)C[C@@H](c2cccc(-c3ccc(C(N)=O)cc3C(=O)O)c2)Nc2ccc(C(=N)N)cc21 (racemic)
Ki: 3 µM
//
compound: CC(C)CNC(=O)c1ccc(-c2ccccc2[C@@H]2C[C@H](c3ccccc3)c3cc(C(=N)N)ccc3N2)c(C(=O)O)c1 (racemic)
Ki: 1.1 µM
//
compound: C[C@]1(c2ccccc2)C[C@@H](c2cccc(-c3ccc(C(=O)O)cc3C(=O)O)c2)Nc2ccc(C(=N)N)cc21 (racemic)
Ki: 9.3 µM
//
compound: C[C@]1(c2ccccc2)C[C@H](c2cccc(-c3ccc(C(N)=O)cc3C(=O)O)c2)Nc2ccc(C(=N)N)cc21 (racemic)
Ki: 8.35 µM
//
compound: COC(=O)c1ccc(-c2cccc([C@@H]3C[C@](C)(c4ccccc4)c4cc(C(=N)N)ccc4N3)c2)c(C(=O)O)c1 (racemic)
Ki: 0.606 µM
//
compound: CNC(=O)c1ccc(-c2cccc([C@@H]3C[C@](C)(c4ccccc4)c4cc(C(=N)N)ccc4N3)c2)c(C(=O)O)c1 (racemic)
Ki: 4.1 µM
//
compound: CN(C)Cc1ccc(-c2cccc([C@@H]3C[C@](C)(c4ccccc4)c4cc(C(=N)N)ccc4N3)c2)c(C(=O)O)c1 (racemic)
Ki: > 15 µM
//
compound: N=C(N)c1ccc2c(c1)[C@@H](c1ccccc1)C[C@@H](c1ccccc1-c1ccc(C(=O)O)cc1C(=O)O)N2 (racemic)
Ki: 0.97 µM
